# Tested on: H. influenza Hi47 clinical strain, Ampicillin Resistant
# Experiment Description: organism not typed
# Assay type: cell-based
# Settings: read-out: MIC Hi47
Catalogue of compounds with associated MIC
Quantity Measured: MIC

- Smiles Input: "COC[C@@H]1[C@@H](O)[C@@H]2[C@H]3C=C[C@@H]4[C@@H](COC)C(=O)O[C@H]([C@H](O)COC)[C@H](C)/C=C(\\C)[C@@]24O[C@H]3[C@@H]1OC(=O)c1cc[nH]n1"
  Tested Target: "H. influenza Hi47 clinical strain, Ampicillin Resistant"
  Recorded Result: "> 64 µg/mL"
- Smiles Input: "COC/C(=N\\OC)[C@H]1OC(=O)[C@H](COC)[C@H]2C=C[C@H]3[C@H]4O[C@]2(/C(C)=C/[C@H]1C)[C@@H]3[C@H](O)[C@@H](COC)[C@H]4OC(=O)c1ccc[nH]1"
  Tested Target: "H. influenza Hi47 clinical strain, Ampicillin Resistant"
  Recorded Result: "> 64 µg/mL"
- Smiles Input: "COC[C@@H]1[C@@H](O)[C@@H]2[C@H]3C=C[C@@H]4[C@@H](COC)C(=O)O[C@H]([C@H](O)COC)[C@H](C)/C=C(\\C)[C@@]24O[C@H]3[C@@H]1OC(=O)c1ccoc1C"
  Tested Target: "H. influenza Hi47 clinical strain, Ampicillin Resistant"
  Recorded Result: "> 64 µg/mL"
- Smiles Input: "COC[C@@H](O)[C@H]1OC(=O)[C@H](COC)[C@H]2C=C[C@H]3[C@H]4O[C@]2(/C(C)=C/[C@H]1C)[C@@H]3[C@H](O)[C@@H](C)[C@H]4OC(=O)c1cc(Cl)c[nH]1"
  Tested Target: "H. influenza Hi47 clinical strain, Ampicillin Resistant"
  Recorded Result: "64 µg/mL"

* * *

# Tested on: H. influenza Hi47 clinical strain, Ampicillin Resistant
# Experiment Description: organism not typed
# Format: cell-based
# Settings: read-out: MIC Hi47

- Smiles Input: "COCC(=NOC(C)=O)[C@H]1OC(=O)[C@H](COC)[C@H]2C=C[C@H]3[C@H]4O[C@]2(/C(C)=C/[C@H]1C)[C@@H]3[C@H](O)[C@@H](COC)[C@H]4OC(=O)c1ccc[nH]1"
  Tested Target: "H. influenza Hi47 clinical strain, Ampicillin Resistant"
  Comparison Operator: "="
  MIC / µg/mL: 64
- Smiles Input: "COC[C@@H]1[C@@H](O)[C@@H]2[C@H]3C=C[C@@H]4[C@@H](COC)C(=O)O[C@H]([C@H](O)COC)[C@H](C)/C=C(\\C)[C@@]24O[C@H]3[C@@H]1OC(=O)c1ccoc1"
  Tested Target: "H. influenza Hi47 clinical strain, Ampicillin Resistant"
  Comparison Operator: ">"
  MIC / µg/mL: 64

* * *

# Tested on: E. coli Ec50 efflux pump KO
# Experiment Description: microbe, parasite or virus in culture
# Assay type: cell-based
# Settings: Escherichia coli, read-out: MIC Ec50 efflux pump KO
Catalogue of molecules with associated MIC

- Smiles Input: "COC[C@@H]1[C@@H](O)[C@@H]2[C@H]3C=C[C@@H]4[C@@H](COC)C(=O)OC[C@H](C)/C=C(\\C)[C@@]24O[C@H]3[C@@H]1OC(=O)c1ccc[nH]1"
  MIC: "> 64 µg/mL"
- Smiles Input: "COC[C@@H]1[C@@H](O)[C@@H]2[C@H]3C=C[C@@H]4[C@@H](COC)C(=O)O[C@H]([C@H](O)COC)[C@H](C)/C=C(\\C)[C@@]24O[C@H]3[C@@H]1OC(=O)c1cc(Br)c[nH]1"
  MIC: "> 64 µg/mL"
- Smiles Input: "COC[C@@H]1[C@@H](O)[C@@H]2[C@H]3C=C[C@@H]4[C@@H](COC)C(=O)O[C@H]([C@H](O)COC)[C@H](C)/C=C(\\C)[C@@]24O[C@H]3[C@@H]1OC(=O)c1cc(F)c[nH]1"
  MIC: "64 µg/mL"
- Smiles Input: "COC[C@@H](O)[C@H]1OC(=O)[C@H](COC)[C@H]2C=C[C@H]3[C@H]4O[C@]2(/C(C)=C/[C@H]1C)[C@@H]3[C@H](O)[C@@H](C)[C@H]4OC(=O)c1cc(Cl)c[nH]1"
  MIC: "16 µg/mL"
- Smiles Input: "COC[C@@H]1[C@@H](O)[C@@H]2[C@H]3C=C[C@@H]4[C@@H](COC)C(=O)O[C@H]([C@H](O)COC)[C@H](C)/C=C(\\C)[C@@]24O[C@H]3[C@@H]1OC(=O)c1ccoc1"
  MIC: "> 64 µg/mL"
- Smiles Input: "COC[C@@H]1[C@@H](O)[C@@H]2[C@H]3CC[C@@H]4[C@@H](COC)C(=O)O[C@H]([C@H](O)COC)[C@H](C)/C=C(\\C)[C@@]24O[C@H]3[C@@H]1OC(=O)c1ccc[nH]1"
  MIC: "> 64 µg/mL"
- Smiles Input: "COC[C@@H]1[C@@H](O)[C@@H]2[C@H]3C=C[C@@H]4[C@@H](COC)C(=O)O[C@H]([C@H](O)COC)[C@H](C)/C=C(\\C)[C@@]24O[C@H]3[C@@H]1OC(=O)c1cc(Cl)c[nH]1"
  MIC: "64 µg/mL"
- Smiles Input: "COC/C(=N\\OC)[C@H]1OC(=O)[C@H](COC)[C@H]2C=C[C@H]3[C@H]4O[C@]2(/C(C)=C/[C@H]1C)[C@@H]3[C@H](O)[C@@H](COC)[C@H]4OC(=O)c1ccc[nH]1"
  MIC: "> 64 µg/mL"
- Smiles Input: "COC[C@@H]1[C@@H](O)[C@@H]2[C@H]3C=C[C@@H]4[C@@H](COC)C(=O)O[C@H]([C@H](O)COC)[C@H](C)/C=C(\\C)[C@@]24O[C@H]3[C@@H]1OC(=O)c1cc(C)n[nH]1"
  MIC: "> 64 µg/mL"

* * *

# Tested Target: DNA Polymerase IIIα (DnaE) from Staphylococcus aureus (Staphylococcus aureus, UniProt Q6GG04)
# Sequence (Q6GG04 1-1022): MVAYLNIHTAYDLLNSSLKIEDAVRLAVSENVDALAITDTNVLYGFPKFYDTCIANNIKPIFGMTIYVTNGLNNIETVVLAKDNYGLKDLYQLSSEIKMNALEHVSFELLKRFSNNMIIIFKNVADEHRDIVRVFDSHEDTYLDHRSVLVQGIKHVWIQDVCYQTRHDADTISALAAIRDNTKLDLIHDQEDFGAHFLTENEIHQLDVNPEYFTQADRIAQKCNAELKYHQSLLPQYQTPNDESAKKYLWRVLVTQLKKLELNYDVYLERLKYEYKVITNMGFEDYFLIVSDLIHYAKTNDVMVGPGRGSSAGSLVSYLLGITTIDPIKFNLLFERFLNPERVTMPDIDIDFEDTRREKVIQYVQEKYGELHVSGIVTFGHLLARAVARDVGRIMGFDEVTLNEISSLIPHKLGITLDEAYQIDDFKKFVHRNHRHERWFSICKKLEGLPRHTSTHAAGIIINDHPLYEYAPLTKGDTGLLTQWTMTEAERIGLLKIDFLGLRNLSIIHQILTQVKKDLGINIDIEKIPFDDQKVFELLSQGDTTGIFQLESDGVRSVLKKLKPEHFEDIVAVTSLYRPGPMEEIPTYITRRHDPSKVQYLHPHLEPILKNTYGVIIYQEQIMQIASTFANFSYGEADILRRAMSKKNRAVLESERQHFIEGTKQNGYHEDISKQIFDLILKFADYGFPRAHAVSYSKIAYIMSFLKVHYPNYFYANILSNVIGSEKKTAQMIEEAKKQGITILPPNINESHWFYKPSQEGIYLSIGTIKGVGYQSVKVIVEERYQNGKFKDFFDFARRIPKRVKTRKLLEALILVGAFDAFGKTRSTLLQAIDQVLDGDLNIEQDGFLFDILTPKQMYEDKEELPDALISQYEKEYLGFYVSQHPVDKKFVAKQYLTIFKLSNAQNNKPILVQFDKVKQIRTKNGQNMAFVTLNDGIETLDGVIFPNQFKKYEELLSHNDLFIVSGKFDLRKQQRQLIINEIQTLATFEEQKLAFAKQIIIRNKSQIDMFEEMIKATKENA
# Experiment Description: biochemical
# Settings: DNA polymerase III, S. aureus; read-out: IC50 semiquantitative scoring, S. aureus
pIC50: −log10 of the molar value.

- Compound: "COC[C@@H]1[C@@H](O)[C@@H]2[C@H]3C=C[C@@H]4[C@@H](COC)C(=O)O[C@H]([C@H](O)COC)[C@H](C)/C=C(\\C)[C@@]24O[C@H]3[C@@H]1OC(=O)c1ccsc1 [Compound 9, 8-O-Thiophene-3′-carbonylbranimycin]"
  pIC50: "5.77 to 8.77"
- Compound: "COC[C@@H]1[C@@H](O)[C@@H]2[C@H]3C=C[C@@H]4[C@@H](COC)C(=O)O[C@H]([C@H](O)COC)[C@H](C)/C=C(\\C)[C@@]24O[C@H]3[C@@H]1OC(=O)c1cocn1 [Compound 8, 8-O-Oxazole-4′-carbonylbranimycin]"
  pIC50: "4.76 to 5.76"
- Compound: "COC[C@@H]1[C@@H](O)[C@@H]2[C@H]3C=C[C@@H]4[C@@H](COC)C(=O)O[C@H]([C@H](O)COC)[C@H](C)/C=C(\\C)[C@@]24O[C@H]3[C@@H]1OC(=O)c1cc(Br)c(Br)[nH]1 [Compound 34]"
  pIC50: "4.87 to 5.87"
- Compound: "COC[C@@H]1[C@@H](O)[C@@H]2[C@H]3C=C[C@@H]4[C@@H](COC)C(=O)O[C@H]([C@H](O)COC)[C@H](C)/C=C(\\C)[C@@]24O[C@H]3[C@@H]1OC(=O)c1cc(Br)c(Br)o1 [Compound 36]"
  pIC50: "5.87 to 8.87"

* * *

# Test system: E. coli Ec1 ATCC 25922
# Experiment Description: Antibacterial activity assay (MIC), E. coli Ec1
# Type: cell-based
# Settings: Escherichia coli, ATCC25922; E. coli Ec1 ATCC 25922, sensitive strain; read-out: MIC Ec1
Catalogue of molecules with associated MIC

- Smiles Input: "COCC(=NOC(C)=O)[C@H]1OC(=O)[C@H](COC)[C@H]2C=C[C@H]3[C@H]4O[C@]2(/C(C)=C/[C@H]1C)[C@@H]3[C@H](O)[C@@H](COC)[C@H]4OC(=O)c1cc(Cl)c[nH]1"
  Tested Target: "E. coli Ec1 ATCC 25922"
  MIC: "> 64 µg/mL"
- Smiles Input: "COC[C@@H]1[C@@H](O)[C@@H]2[C@H]3C=C[C@@H]4[C@@H](COC)C(=O)O[C@H]([C@H](O)COC)[C@H](C)/C=C(\\C)[C@@]24O[C@H]3[C@@H]1OC(=O)c1cocn1"
  Tested Target: "E. coli Ec1 ATCC 25922"
  MIC: "> 64 µg/mL"

* * *

Catalogue of molecules with associated MIC
# Test system: H. influenza Hi47 clinical strain, Ampicillin Resistant
# Experiment Description: organism not typed
# Type: cell-based
# Settings: read-out: MIC Hi47
Quantity Measured: MIC

- Molecule: "COC[C@@H]1[C@@H](O)[C@@H]2[C@H]3C=C[C@@H]4[C@@H](COC)C(=O)O[C@H](C(C)(O)COC)[C@H](C)/C=C(\\C)[C@@]24O[C@H]3[C@@H]1OC(=O)c1ccc[nH]1 (stereo partly shown)"
  Recorded Result: "> 64 µg/mL"
- Molecule: "COC[C@@H]1[C@@H](O)[C@@H]2[C@H]3C=C[C@@H]4[C@@H](COC)C(=O)O[C@H]([C@H](O)COC)[C@H](C)/C=C(\\C)[C@@]24O[C@H]3[C@@H]1OC(=O)c1cc(Cl)c[nH]1"
  Recorded Result: "64 µg/mL"
- Molecule: "COC[C@@H]1[C@@H](O)[C@@H]2[C@H]3C=C[C@@H]4[C@@H](COC)C(=O)O[C@H]([C@H](O)COC)[C@H](C)/C=C(\\C)[C@@]24O[C@H]3[C@@H]1OC(=O)c1cc(Br)c(Br)o1"
  Recorded Result: "> 64 µg/mL"
- Molecule: "COC[C@@H]1[C@@H](O)[C@@H]2[C@H]3C=C[C@@H]4[C@@H](COC)C(=O)O[C@H]([C@H](O)COC)[C@H](C)/C=C(\\C)[C@@]24O[C@H]3[C@@H]1OC(=O)c1ccsc1"
  Recorded Result: "> 64 µg/mL"
